Where do the numbers come from? From ChEMBL document CHEMBL3885861.

species on record: Rattus norvegicus; assay: Open TG-GATES - Regimen: Single; assay type: toxicity, organism-based, Sprague-Dawley; design: regimen Single, gender Male, age 6 weeks; settings: in vivo, po, 0 mg/kg, 6 h, tissue Blood, route gavage, dose level Control
reportedProperty: Bas
# answer = value followed by unit

In the examples that follow, each entry is paired with its recorded Bas.
[
  {
    "compound": "CN(C)CCC=C1c2ccccc2COc2ccccc21 [DOXEPIN]",
    "result": "0.2%"
  },
  {
    "compound": "OCCOCCN1CCN(C(c2ccccc2)c2ccc(Cl)cc2)CC1 (stereo unspecified) [HYDROXYZINE]",
    "result": "0%"
  },
  {
    "compound": "CCC1(c2ccccc2)C(=O)NC(=O)NC1=O",
    "result": "0.2%"
  },
  {
    "compound": "CN(C)C(=N)N=C(N)N",
    "result": "0%"
  }
]

Name the recorded Bas for CC[C@H]1[C@@H]2C[C@H]3[C@@H]4N(C)c5ccccc5[C@]45C[C@@H]([C@@H]2[C@H]5O)N3[C@@H]1O .
0%

Same again, this time with CCc1oc2ccccc2c1C(=O)c1cc(Br)c(O)c(Br)c1
0%

---

species: Rattus norvegicus; assay: Open TG-GATES - Regimen: Single; assay type: toxicity, organism-based, Sprague-Dawley; set-up: regimen Single, gender Male, age 6 weeks; details: in vivo, po, 100 mg/kg, 24 h, tissue Plasma, route gavage, dose level Low
Listed here: items and their measured TP.
Give the value in g/dL but do not write g/dL after it.

In the examples that follow, each entry is paired with its recorded TP.
[
  {
    "molecule": "CN(C)CCC=C1c2ccccc2COc2ccccc21 [DOXEPIN]",
    "TP, g/dL": 5.6
  },
  {
    "molecule": "CCC1(c2ccccc2)C(=O)NC(=O)NC1=O",
    "TP, g/dL": 5.6
  },
  {
    "molecule": "O=NN1CCOCC1",
    "TP, g/dL": 5.4
  }
]

Name the recorded TP for CN(C)C(=N)N=C(N)N .
5.5

---

Listed here: items and their measured KIDNEY_R.
organism: Rattus norvegicus; experiment: Open TG-GATES - Regimen: Single; format: toxicity, organism-based, Sprague-Dawley; parameters: regimen Single, gender Male, age 6 weeks; details: in vivo, po, 0 mg/kg, 6 h, tissue Kidney, route gavage, dose level Control
Give the value in g but do not write g after it.

In the examples that follow, each entry is paired with its recorded KIDNEY_R.
[
  {
    "molecule": "CN(C)C(=N)N=C(N)N [METFORMIN]",
    "reportedProperty": "KIDNEY_R",
    "unitSymbol": "g",
    "result": 0.9
  },
  {
    "molecule": "CN(C)CCC=C1c2ccccc2COc2ccccc21 [DOXEPIN]",
    "reportedProperty": "KIDNEY_R",
    "unitSymbol": "g",
    "result": 0.9
  },
  {
    "molecule": "OCCOCCN1CCN(C(c2ccccc2)c2ccc(Cl)cc2)CC1 (stereo not given) [HYDROXYZINE]",
    "reportedProperty": "KIDNEY_R",
    "unitSymbol": "g",
    "result": 0.9
  }
]

Name the recorded KIDNEY_R for CC(C)N(CCC(C(N)=O)(c1ccccc1)c1ccccn1)C(C)C (stereo not given) [DISOPYRAMIDE] .
1

Same again, this time with O=NN(CCCl)C(=O)NC1CCCCC1 [LOMUSTINE]
1

Same again, this time with CC1=C(CC(=O)O)c2cc(F)ccc2/C1=C\c1ccc([S+](C)[O-])cc1 (stereo not given)
0.9

Same again, this time with ClC(Cl)(Cl)Cl [CARBON TETRACHLORIDE]
0.9

Same again, this time with CCc1oc2ccccc2c1C(=O)c1cc(Br)c(O)c(Br)c1 [BENZBROMARONE]
1

Same again, this time with CC[C@H]1[C@@H]2C[C@H]3[C@@H]4N(C)c5ccccc5[C@]45C[C@@H]([C@@H]2[C@H]5O)N3[C@@H]1O [AJMALINE]
0.9

Same again, this time with CCC1(c2ccccc2)C(=O)NC(=O)NC1=O [PHENOBARBITAL]
1

---

species on record: Rattus norvegicus; experiment: Open TG-GATES - Regimen: Single; type: toxicity, organism-based, Sprague-Dawley; parameters: regimen Single, gender Male, age 6 weeks; settings: in vivo, po, 0 mg/kg, 3 h, tissue Plasma, route gavage, dose level Control
LDH less than 100 IU/L is yes (1); LDH greater than or equal to 100 IU/L is no (0).

For orientation, consider the following solved cases.
[
  {
    "compound": "CC1=C(CC(=O)O)c2cc(F)ccc2/C1=C\\c1ccc([S+](C)[O-])cc1 (stereo not given)",
    "classification": "yes (1)"
  },
  {
    "compound": "OCCOCCN1CCN(C(c2ccccc2)c2ccc(Cl)cc2)CC1 (stereo not given) [HYDROXYZINE]",
    "classification": "yes (1)"
  },
  {
    "compound": "CC[C@H]1[C@@H]2C[C@H]3[C@@H]4N(C)c5ccccc5[C@]45C[C@@H]([C@@H]2[C@H]5O)N3[C@@H]1O",
    "classification": "yes (1)"
  },
  {
    "compound": "CN(C)C(=N)N=C(N)N",
    "classification": "yes (1)"
  },
  {
    "compound": "CCC1(c2ccccc2)C(=O)NC(=O)NC1=O",
    "classification": "no (0)"
  },
  {
    "compound": "CC(C)N(CCC(C(N)=O)(c1ccccc1)c1ccccn1)C(C)C (stereo not given) [DISOPYRAMIDE]",
    "classification": "no (0)"
  },
  {
    "compound": "CCc1oc2ccccc2c1C(=O)c1cc(Br)c(O)c(Br)c1",
    "classification": "yes (1)"
  },
  {
    "compound": "CN(C)CCC=C1c2ccccc2COc2ccccc21 [DOXEPIN]",
    "classification": "yes (1)"
  },
  {
    "compound": "O=NN(CCCl)C(=O)NC1CCCCC1",
    "classification": "yes (1)"
  }
]

Continue with the next compound.
Report whether reported LDH is lower than 100 IU/L (strictly) for ClC(Cl)(Cl)Cl [CARBON TETRACHLORIDE]
no (0)

---

Listed here: items and their measured MCV.
species: Rattus norvegicus; experiment: Open TG-GATES - Regimen: Daily Repeat; format: toxicity, organism-based, Sprague-Dawley; design: regimen Daily Repeat, gender Male, age 6 weeks; conditions: in vivo, po, 0 mg/kg, […], tissue Blood, route gavage, dose level Control, time 14 day
Give the value in fL but do not write fL after it.

In the examples that follow, each entry is paired with its recorded MCV.
[
  {
    "molecule": "O=NN(CCCl)C(=O)NC1CCCCC1",
    "unitSymbol": "fL",
    "MCV": 60.7
  },
  {
    "molecule": "CCCCc1oc2ccccc2c1C(=O)c1cc(I)c(OCCN(CC)CC)c(I)c1",
    "unitSymbol": "fL",
    "MCV": 59.9
  },
  {
    "molecule": "CC(C)N(CCC(C(N)=O)(c1ccccc1)c1ccccn1)C(C)C (stereo not given) [DISOPYRAMIDE]",
    "unitSymbol": "fL",
    "MCV": 58.7
  },
  {
    "molecule": "ClC(Cl)(Cl)Cl [CARBON TETRACHLORIDE]",
    "unitSymbol": "fL",
    "MCV": 58.9
  }
]

Name the recorded MCV for OCCOCCN1CCN(C(c2ccccc2)c2ccc(Cl)cc2)CC1 (stereo not given) [HYDROXYZINE] .
60.9

---

species on record: Rattus norvegicus; test: Open TG-GATES - Regimen: Single; format: toxicity, organism-based, Sprague-Dawley; parameters: regimen Single, gender Male, age 6 weeks; conditions: in vivo, po, 0 mg/kg, 24 h, tissue Plasma, route gavage, dose level Control
Listed here: items and their measured PL.
Give the value in mg/dL but do not write mg/dL after it.

In the examples that follow, each entry is paired with its recorded PL.
[
  {
    "compound": "CN(C)C(=N)N=C(N)N [METFORMIN]",
    "PL [mg/dL]": 139
  },
  {
    "compound": "CN(C)CCC=C1c2ccccc2COc2ccccc21 [DOXEPIN]",
    "PL [mg/dL]": 153.8
  }
]

Name the recorded PL for O=NN1CCOCC1 [N-NITROSOMORPHOLINE] .
162.4

Same again, this time with CCC1(c2ccccc2)C(=O)NC(=O)NC1=O [PHENOBARBITAL]
143

Same again, this time with CC(C)N(CCC(C(N)=O)(c1ccccc1)c1ccccn1)C(C)C (stereo unspecified) [DISOPYRAMIDE]
143.2

---

species: Rattus norvegicus; assay: Open TG-GATES - Regimen: Daily Repeat; type: toxicity, organism-based, Sprague-Dawley; parameters: regimen Daily Repeat, gender Male, age 6 weeks; conditions: in vivo, po, 0 mg/kg, 72 h, tissue Blood, route gavage, dose level Control, time 3 day
reportedProperty: MCH
# answer = value followed by unit

In the examples that follow, each entry is paired with its recorded MCH.
[
  {
    "compound": "CCC1(c2ccccc2)C(=O)NC(=O)NC1=O",
    "reportedProperty": "MCH",
    "result": "22.4 pg"
  },
  {
    "compound": "ClC(Cl)(Cl)Cl [CARBON TETRACHLORIDE]",
    "reportedProperty": "MCH",
    "result": "21.8 pg"
  }
]

Please find the next compound below.
Name the recorded MCH for CC1=C(CC(=O)O)c2cc(F)ccc2/C1=C\c1ccc([S+](C)[O-])cc1 (stereo not drawn) .
21.6 pg
